Sourced from patent US20250296992A1

# EXPERIMENTAL_TARGET: T1, human SLITRK6 on cells (human, UniProt Q9H5Y7 27-841)
# T1 construct: whole, on cells
# ASSAY_SUMMARY: flow cytometry on SW780 cells
MEASURED_METRIC: EC50 (nM)
Give the quantity in nM, number only.

Name the reported EC50 value associated with the binder phA290 (antibody, V domains shown, From phage display, then full-length construction; Only the variable regions are tied to the name) VH: QVQLVQSGAEVKKPGASVKVSCKASGYTFTSYYMHWVRQAPGQGLEWMGIINPSGGSTSYAQKFQGRVTMTRDTSTSTVYMELSSLRSEDTAVYYCARGFTRYFDYWGQGTLVTVSA VL: EIVMTQSPGTLSLSPGERATLSCRASQSVSKYLAWYQQRPGQAPRLLIYDASNRATGIPARFSGSGSGTDFTLTVSSLEPEDFAVYYCQQRYNWPLTFGGGTTVEIK
0.27

Report EC50 for hu14G1-03 (antibody, V domains shown) VH: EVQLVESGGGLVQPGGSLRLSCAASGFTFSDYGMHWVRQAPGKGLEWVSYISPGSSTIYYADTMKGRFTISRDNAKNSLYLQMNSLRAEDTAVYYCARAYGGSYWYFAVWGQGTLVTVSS VL: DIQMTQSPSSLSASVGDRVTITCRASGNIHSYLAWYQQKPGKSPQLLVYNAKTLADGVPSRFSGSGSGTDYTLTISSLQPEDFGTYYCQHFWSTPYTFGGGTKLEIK please.
0.62

Need EC50 of phA290-LD038 (8) (antibody, V domains shown, drug-linker LD038 on cysteines freed by TCEP reduction, DAR 8.0; positions not given, also called phA290 ADC) VH: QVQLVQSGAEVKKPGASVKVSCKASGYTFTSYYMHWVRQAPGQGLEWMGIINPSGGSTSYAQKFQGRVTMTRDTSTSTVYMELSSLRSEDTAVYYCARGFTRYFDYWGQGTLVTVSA VL: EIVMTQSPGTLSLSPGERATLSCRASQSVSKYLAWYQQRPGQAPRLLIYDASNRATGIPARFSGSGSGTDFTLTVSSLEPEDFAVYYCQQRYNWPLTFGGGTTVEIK , thanks.
0.27

Reported EC50, binder hu1H2-13 (antibody, V domains shown) VH: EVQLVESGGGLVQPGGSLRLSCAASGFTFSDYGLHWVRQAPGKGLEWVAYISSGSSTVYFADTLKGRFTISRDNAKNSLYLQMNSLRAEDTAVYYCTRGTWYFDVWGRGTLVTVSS VL: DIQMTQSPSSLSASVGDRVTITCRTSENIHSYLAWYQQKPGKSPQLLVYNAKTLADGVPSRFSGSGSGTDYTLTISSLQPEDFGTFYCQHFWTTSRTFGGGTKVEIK : ____
0.44

Requested read-out: EC50. Entry: hu1H2-03 (antibody, V domains shown, see m20) VH: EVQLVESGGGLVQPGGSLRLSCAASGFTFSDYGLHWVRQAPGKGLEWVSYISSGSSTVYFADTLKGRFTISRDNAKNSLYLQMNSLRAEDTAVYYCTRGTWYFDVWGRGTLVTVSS VL: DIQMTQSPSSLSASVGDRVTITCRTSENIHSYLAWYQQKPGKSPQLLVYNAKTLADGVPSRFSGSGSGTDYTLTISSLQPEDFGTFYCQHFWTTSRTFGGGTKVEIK
0.44

Which EC50 is reported for this binder? hu14G1-03-LD038 (8) (antibody, V domains shown, drug-linker LD038 on cysteines freed by TCEP reduction, DAR 8.0; positions not given, also called hu14G1-03 ADC) VH: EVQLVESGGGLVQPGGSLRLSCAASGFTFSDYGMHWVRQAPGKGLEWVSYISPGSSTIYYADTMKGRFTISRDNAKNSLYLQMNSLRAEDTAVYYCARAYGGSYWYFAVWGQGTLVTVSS VL: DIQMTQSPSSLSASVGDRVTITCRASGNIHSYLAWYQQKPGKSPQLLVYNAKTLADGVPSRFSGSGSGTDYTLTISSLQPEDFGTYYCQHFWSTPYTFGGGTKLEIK
0.64

Given the entry phA108 (antibody, V domains shown, From phage display, then full-length construction; Only the variable regions are tied to the name) VH: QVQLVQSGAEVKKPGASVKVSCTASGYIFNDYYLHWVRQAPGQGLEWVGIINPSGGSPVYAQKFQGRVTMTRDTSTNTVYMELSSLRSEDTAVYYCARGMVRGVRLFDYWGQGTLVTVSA VL: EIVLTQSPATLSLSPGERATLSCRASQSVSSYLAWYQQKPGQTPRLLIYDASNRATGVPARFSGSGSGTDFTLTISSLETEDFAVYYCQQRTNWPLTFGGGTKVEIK , report its measured EC50.
0.27
